# Test system: JJN-3 cells
# assay-details: Biological Assay C: antiproliferative activity on JJN-3 cells (CellTiter-Glo)
# Type: cell-based
# setup-conditions: Homo sapiens, 72 hr treatment
Class assignment keyed on EC50, ranges 1: < 90 nM; 2: ≥ 90 nM and < 700 nM; 3: ≥ 700 nM

>>> class_name("COCCc1cn(-c2ccnc(N)n2)c2cc(C#CC(C)(C)O)ncc12")
2
>>> class_name("Nc1nccc(-n2ccc3cnc(C#CC4(O)CCCC4)cc32)n1")
2
>>> class_name("Nc1ncc(Cl)c(-n2ccc3cnc(C#CC4(O)CC4)cc32)n1")
3

Here's the next entry for you.
Request: Which bin should I file CC(O)(C#Cc1cc2c(cn1)c(C1(F)CN(C3CC3)C1)cn2-c1ccnc(N)n1)C1CC1 (stereo not drawn) under?
Result: 3

Data credit: patent US10005773B2
